# Procedure Text: Pharmacokinetic studies of crizotinib and dasatinib in patients
# Type: in vivo, human
# Condition Context: human, in vivo, 165 mg/m2, Cmax
Measured Endpoint: Cmax (ng/mL)
Express your answer in ng/mL, writing the number without its unit.

Provide measured Cmax value, entry: C[C@@H](Oc1cc(-c2cnn(C3CCNCC3)c2)cnc1N)c1c(Cl)ccc(F)c1Cl
156

* * *

# Procedure Text: Pharmacokinetic studies of crizotinib and dasatinib in patients
# Format: in vivo, human
# Condition Context: human, in vivo
Measured Endpoint: Tmax (h)
Express your answer in h, writing the number without its unit.

Provide measured Tmax value, entry: C[C@@H](Oc1cc(-c2cnn(C3CCNCC3)c2)cnc1N)c1c(Cl)ccc(F)c1Cl
4.1

Provide measured Tmax value, entry: Cc1nc(Nc2ncc(C(=O)Nc3c(C)cccc3Cl)s2)cc(N2CCN(CCO)CC2)n1
2.1

The measured values listed here are drawn from paper PMC5980705.
